We begin with Ki values for Cathepsin B (Homo sapiens, UniProt P07858), as collected from the published literature.
experimental.readout: Ki (nM)

INSERT INTO measurements (compound, result_value) VALUES
  ('CCC[C@H](NC(=O)C1(NC(=O)c2ccc(OC(F)(F)F)cc2)CCCCC1)C(=O)c1nnc(-c2ccco2)o1', 220),
  ('CCC[C@H](NC(=O)C1(NC(=O)c2ccc(OC(F)(F)F)cc2)CCCCC1)C(=O)c1nnc(CC)o1', 98),
  ('CC(C)C[C@H](NC(=O)c1cc2ccccc2o1)C(=O)N[C@@H]1C(=O)CN(S(=O)(=O)c2ccccn2)CC[C@@H]1C', 32),
  ('CC(C)C[C@H](NC(=O)OCc1ccccc1)C(=O)NC1CCN(C(=O)[C@H](CC(C)C)NC(=O)OCc2ccccc2)CC1=O (stereo not given in full)', 440),
  ('Cc1cc(O)cc(C)c1C[C@H](NC(=O)[C@@H]1CCCN1C(=O)[C@H](CCCNC(=N)N)NC(=O)[C@H](CCCNC(=N)N)N(C)C(=O)[C@@H]1CCCN1C(=O)[C@H](CCCCN)NC(=O)[C@@H](CO)NC(=O)[C@@H](CO)NC(=O)[C@@H](CO)NC(=O)[C@H](Cc1cn(CCNC(=O)[C@H](CCCNC(=N)N)NC(=O)[C@H](CC(C)C)NC(=O)C2OC2C(=O)O)nn1)NC(=O)CN1CCN(CC(=O)O)CCN(CC(=O)O)CCN(CC(=O)O)CC1)C(=O)N[C@H](C(=O)N[C@@H](CC(C)C)C(=O)O)C(C)(C)C (stereo not given in full)', 110);

I. N=C(N)NCCC[C@H](NC(=O)[C@H](CS)NC(=O)Cc1ccc(-c2ccccc2)cc1)C(=O)N[C@@H](Cc1ccc(O)cc1)C(=O)NCCc1ccccc1
II. CCN(CC)Cc1ccc(/C=C/c2ccccc2C(=O)NC(Cc2ccccc2)C(=O)C(N)=O)cc1 (stereo not given)
Exam item: For this pair, I and II , which shows a numerically higher Ki? Field: selected label. Fill in the label of the entry you choose.
Marked response: I
(I: 15000 nM, II: 28 nM)

---

pKi: −log10 of the molar value.
We begin with pKi values for Cathepsin B (Homo sapiens), as collected from the published literature.
experimental.readout: pKi

In the examples that follow, each entry is paired with its recorded pKi.
INSERT INTO assay_data (compound, experimental_readout, result_value) VALUES
  ('CCC[C@H](NC(=O)OCC(C)C)C(=O)c1nnc(-c2ccco2)o1', 'pKi', 4.80),
  ('CC(C)[C@@H]1C[C@@]1(NC(=O)OCc1ccccc1)C(=O)N[C@@H](Cc1ccccc1)C(=O)C(=O)NCCc1ccccc1', 'pKi', 5.17),
  ('CCC[C@H](NC(=O)[C@@H]1C2CCCC2CN1C(=O)[C@@H](NC(=O)[C@@H](NC(=O)c1cnccn1)C(C)(C)C)C(C)(C)C)C(=O)C(=O)NC1CC1 (some centres undefined)', 'pKi', 5.41),
  ('CC(C)C[C@H](NC(=O)c1ccc2ccccc2n1)C(=O)N[C@H]1CCCN(S(=O)(=O)c2ccccn2)CC1=O', 'pKi', 6.13),
  ('CC(C)C[C@H](NC(=O)OCc1ccccc1)C(=O)N[C@@H](Cc1ccccc1)C(=O)C(=O)NCCc1ccccc1', 'pKi', 6.52),
  ('CCC[C@H](NC(=O)C1(NC(=O)c2ccc(OC(F)(F)F)cc2)CCCCC1)C(=O)c1nnc(-c2ccc(C(F)(F)F)cc2)o1', 'pKi', 4.64),
  ('CCC[C@H](NC(=O)C1(NC(=O)c2ccc(OC(F)(F)F)cc2)CCCCC1)C(=O)c1nnc(OC)o1', 'pKi', 7.03),
  ('O=CC(Cc1ccccc1)NC(=O)[C@H]1CCCN1S(=O)(=O)c1ccc(Br)cc1 (mixture of isomers)', 'pKi', 5.35);

1. CCC[C@H](NC(=O)OCc1ccccc1)C(=O)c1nnc(-c2ccco2)o1
2. C[C@H](NC(=O)OCc1ccccc1)C(=O)N[C@@H](Cc1ccccc1)C(=O)OCF
Exam item: For this pair, 1 and 2 , which shows a numerically higher pKi? Field: selected label. Fill in the label of the entry you choose.
Marked response: 1
(1: 4.47, 2: 0.76)

1. O=CC(Cc1ccccc1)NC(=O)[C@H]1CCCN1S(=O)(=O)c1ccccc1 (mixture of isomers)
2. CCC[C@H](NC(=O)[C@H](CC(C)C)C(=O)OCc1ccccc1)C(=O)c1nnc(-c2ccco2)o1
3. CC(C)CC(NC(=O)c1cccc(-c2ccncc2)c1)C(=O)N(C)N(C)C#N (racemic)
Exam item: // ranking: key=pKi, reverse=True # respond with the labels, arranged in the requested order
Marked response: 2, 3, 1
(2: 8.70, 3: 8.30, 1: 5.61)
